- target: T1, RSV prefusion F (preF), subtype B (respiratory syncytial virus subtype B)
- T1 construct: also called Prefusion subtype B
- assay notes: BLI, IgG
pKd: −log10 of the molar value.
# pKd listing for each entry below
readout type: pKd

>>> readout_value("ADI-24845 (antibody, V domains shown, full-length IgG) VH: EVQLVESGGGLVKPGGSLRLSCAASGFTFSSYSMNWVRQAPGKGLEWVSSISSSSSYIYYADSVKGRFTISRDNAKNSLYLQMNSLRAEDTAVYYCARDYCSGGSCYLAAFDIWGQGTTVTVSS VL: QPVLTQPASVSGSPGQSITISCTGTSSDVGGYNYVSWYQQHPGKAPKLMIYEVSNRPSGVSNRFSGSKSGNTASLTISGLQAEDEADYYCSSYTSSSTPVVFGGGTKLTVL")
7.44
>>> readout_value("ADI-14351 (antibody, V domains shown, full-length IgG; also called Ab 19) VH: EVQLLESGGGLVQPGGSLRLSCSASGFTFSTYWMHWVRQAPGKGLVWVSRINGDGNDRNYADSVKGRFTISRDNAKNTVYLQMNSLRAEDTAVYYCARGGATGDFYFGMDVWGQGTTVTVSS VL: SYELTQPPSVSVAPGKTAKITCGGNNIGTKSVHWYQQKPGQAPVLVIYYDTDRPSGIPERFSGSNSGNTATLTISRVEAGDEADYYCQVWDSSNSDHVGVFGGGTQLTVL")
9.10
>>> readout_value("ADI-14378 (antibody, V domains shown, full-length IgG; also called Ab 46) VH: QVQLVESGGGLVQPGGSLRLSCAASGFTFSSYWMHWVRQAPGKGLVWVSRINSDGSSPTYADSVKGRFTISRDNAKNTVFLQMNSLRAEDTAVYYCARESWELIRGDAFDIWGQGTTVTVSS VL: DIQMTQSPSSLSASVGDRVTITCRASQSISSSLNWYQQKPGKAPNLLIYAASTLQSGVPSRFSGSGSGTDFTLTISSLQPEDFATYYCQQSYRTPRTFGQGTKVEIK")
8.21
